Just for reference, patent US9517988B2 is where these values come from.

Tested on: ICR mice
Assay: Righting reflex experiment on mice
Conditions: safety index, LD5/ED95, mice
PROPERTY_NAME: SI
Give the value as a plain number.

Identify the reported SI for the following entry. CC(c1cccc(C(C)C2CC2)c1O)C1CC1 (centres unmarked) 3.0

Identify measured SI corresponding to CCC(C)c1cccc(C(C)C2CC2)c1O (centres unmarked) 2.6

Determine from records and report SI for CC(C)c1cccc([C@H](C)C2CC2)c1O 4.1

Specify measured SI for C[C@H](c1cccc([C@@H](C)C2CC2)c1O)C1CC1 [Compound 20, 2,6-bis[(1S)-1-cyclopropylethyl]phenol] . 4.4

Return SI for the following compound: C[C@H](c1cccc([C@H](C)C2CC2)c1O)C1CC1 3.8

Complete the entry with SI for C[C@@H](c1cccc([C@H](C)C2CC2)c1O)C1CC1 [Compound 18, 2,6-bis[(1R)-1-cyclopropylethyl]phenol] 3.5

For the compound CC[C@@H](C)c1cccc([C@@H](C)C2CC2)c1O , give its reported SI. 3.7

For the compound CC[C@@H](C)c1cccc([C@H](C)C2CC2)c1O , give its reported SI. 2.4
